Where do these numbers come from? They come from patent US8563714B2.

- experimental-target: human ALX receptor (Homo sapiens)
- Sequence (P25090 whole entry): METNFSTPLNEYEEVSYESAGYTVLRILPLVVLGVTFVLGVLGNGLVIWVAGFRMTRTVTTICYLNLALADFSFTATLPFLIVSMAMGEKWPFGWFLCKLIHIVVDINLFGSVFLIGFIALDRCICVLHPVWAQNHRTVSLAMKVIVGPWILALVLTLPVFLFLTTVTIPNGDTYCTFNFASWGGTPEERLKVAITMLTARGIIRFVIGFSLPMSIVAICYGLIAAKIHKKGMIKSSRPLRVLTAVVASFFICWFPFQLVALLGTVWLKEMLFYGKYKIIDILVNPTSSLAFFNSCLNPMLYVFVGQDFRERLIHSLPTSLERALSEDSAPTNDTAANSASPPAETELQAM
- assay-summary: Intracellular calcium measurements (FLIPR), agonistic activity in HEK293-hALXR-Gα16 cells
- reported-conditions: Fluo-4 calcium FLIPR, normalized to WKYMVm 10 nM
pEC50: −log10 of the molar value.
quantity: pEC50

compound: O=C(NCCCCN1CCCC1)[C@H]1[C@H](C(=O)NCCc2ccc3c(c2)OCO3)[C@@H]2C=C[C@H]1C21CC1 (racemic) [Example 383]
observed-value: 5.11

[I] O=C(NCCCCN1CCCC1)[C@H]1[C@H](C(=O)Nc2ccc(OC(F)(F)F)cc2)[C@@H]2C=C[C@H]1C21CC1 (racemic) [Example 133]
[II] CCC(CC)CNC(=O)[C@H]1[C@H](C(=O)NCCCCN2CCCC2)[C@H]2C=C[C@@H]1C21CC1 (racemic) [Example 149]
q: Would you mind telling me which has the lower recorded pEC50 between I and II ? Please identify the chosen entry by its label.
a: II
